// provenance: patent US20230165970A1

MIC values for the molecules below.
Test system: Pa PAO1
Type: cell-based, Pseudomonas aeruginosa
condition: PAO1
*1 amine or outer side, *2 acyl side, *3 side chain or, on linkers, in order; H or OH if unused. Where a SMILES comes first, the peptide text is derived from it. Bridges are numbered along the chain shown (N, C = ends). [ ]: non-standard residue; d: D form. The star is where a group is joined. X2 = O=C([C@@H](N[*:1])[C@H](O)CCC(F)(F)F)[*:2]; Propargyl(OCH2CH2)4CO = C#CCOCCOCCOCCOCCC(=O)*; azaDab = NCCN(N[*:1])C(=O)[*:2]; Aoc(2) = CCCCCC[C@H](N)C(=O)O; hLeu = CC(C)CC[C@H](N)C(=O)O; Dab = NCC[C@H](N)C(=O)O; azaGly = NNC(=O)O
Just so you know, I need the unit written after the number.

molecule	result
C#CCOCCOCCOCCOCCC(=O)N[C@@H](CCC(C)C)C(=O)N[C@@H](CCN)C(=O)N[C@H](C(=O)NN(CCN)C(=O)N[C@H]1CCNC(=O)[C@H]([C@@H](C)O)NC(=O)[C@H](CCN)NC(=O)[C@H](CCN)NC(=O)[C@H](CC(C)C)NC(=O)[C@@H](Cc2ccccc2)NC(=O)[C@H](CCN)NC1=O)[C@@H](C)O [Int-127] ({Propargyl(OCH2CH2)4CO}-[hLeu][Dab]T[azaDab][Dab][Dab][dF]L[Dab][Dab]T; lactam 5-C)	2 µg/mL

Turning now to a further molecule:
Determine reported MIC for C#CCOCCOCCOCCOCCC(=O)N[C@@H](CCCCCC)C(=O)N[C@@H](CCN)C(=O)N[C@H](C(=O)NNC(=O)N[C@H]1CCNC(=O)[C@H]([C@@H](C)O)NC(=O)[C@H](CCN)NC(=O)[C@H](CCN)NC(=O)[C@H](CC(C)C)NC(=O)[C@@H](Cc2ccccc2)NC(=O)[C@H](CCN)NC1=O)[C@H](O)CCC(F)(F)F [Int-119] ({Propargyl(OCH2CH2)4CO}-[Aoc(2)][Dab][X2][azaGly][Dab][Dab][dF]L[Dab][Dab]T; lactam 5-C) ; test system: Pa PAO1.
16 µg/mL
